B1: glmS ribozyme (parent)
chain: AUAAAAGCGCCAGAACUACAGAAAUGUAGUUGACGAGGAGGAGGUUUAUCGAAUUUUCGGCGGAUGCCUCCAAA

variants of: B1; test: self-cleavage kobs at 640 uM GlcN6P; higher = faster cleavage; RNA array; conditions: with glucosamine-6-phosphate
Variants at the floor of the assay were thinned out.
PROPERTY: self-cleavage kobs at 640 uM GlcN6P

Answered examples (5):
{"columns": ["MONOMER_SEQUENCE", "PROPERTY", "EXPERIMENTAL_VALUE"],
 "data": [
  ["AUAAAAGCGCCAGAACUACAGAAAUGUACUUGACGAGGAGGAGGUUUAUCGAAUUUUCGGCGGAAGCCUCCAAA", "self-cleavage kobs at 640 uM GlcN6P", "3.62e-05 s⁻¹"],
  ["AUAAAAGCGCCAGAACUACAGAAAUGUAGUUGACGAGGAGGAGGCUUAUUGAAUUUUCGGCGGAUGCCUCCAAA", "self-cleavage kobs at 640 uM GlcN6P", "< 1e-05 s⁻¹"],
  ["AUAAAAGCGCCAGAACCACAGAAAUGUAGUUGACGAGGAGGAGUUUCAUCGAAUUUUCGGCGGAUGCCUCCAAA", "self-cleavage kobs at 640 uM GlcN6P", "< 1e-05 s⁻¹"],
  ["AUAAAAGGGCAAGAACUACAGAAAUGUAGUUGACGAGGAGGAGGUUUAUCGAAUUUUCGGCGGAUGCCUCCAAA", "self-cleavage kobs at 640 uM GlcN6P", "< 1e-05 s⁻¹"],
  ["AUAAAAGCGCCAGUCCUACAGAAAUGUAGUUGCCGAGGAGGAGGUUUAUCGAAUUUUCGGGGGAGGCCUCCAAA", "self-cleavage kobs at 640 uM GlcN6P", "< 1e-05 s⁻¹"]
]}

I would be grateful if you could provide self-cleavage kobs at 640 uM GlcN6P for each of the following entries.
1. AUAAAAGCGCCAGGACUACAGAAAUGUAGUUAACGAGGAGGAGGUUUAUCGAAUUUUCGAAGGAUGACUUCAAA
2. AUAAAAGCGCCAGAACUACAGAAAUGUAUUUGACGAGGAGGAGGUUUAUCGACUUUUCGGCGGAUGCCUCCAAA

["0.000302 s⁻¹", "0.00015 s⁻¹"]

I would be grateful if you could provide self-cleavage kobs at 640 uM GlcN6P for each of the following entries.
1. AUAAAAGCGCGAGGACUACAGAAAUGUAGUCGACGAGGAGGGGGUUUAUCGAAUUGUCGGCGGUAGCCUCCAAA
2. AUAAAAGUGCCAGAACUACAGAAAUGUAGUUGACGAGGAGGAGGUUUAUCGAACGUUCGGCGGAUGCCUCCAAA
3. AUAAAAGCGCCAGCACUACAGAAAUGUAGUUGACGAGGAGGAGGUUUAGCGAAUUUUCGGCGGAUGCUUCCAAA

["< 1e-05 s⁻¹", "< 1e-05 s⁻¹", "< 1e-05 s⁻¹"]

Origin of values: the supplement of paper PMC7125110
